Recorded values, source paper PMC4818591.

molecular target: UniProtKB O15379; assay: HDAC3 isozyme inhibition; type: biochemical; settings: selectivity index
Sequence (O15379 whole entry): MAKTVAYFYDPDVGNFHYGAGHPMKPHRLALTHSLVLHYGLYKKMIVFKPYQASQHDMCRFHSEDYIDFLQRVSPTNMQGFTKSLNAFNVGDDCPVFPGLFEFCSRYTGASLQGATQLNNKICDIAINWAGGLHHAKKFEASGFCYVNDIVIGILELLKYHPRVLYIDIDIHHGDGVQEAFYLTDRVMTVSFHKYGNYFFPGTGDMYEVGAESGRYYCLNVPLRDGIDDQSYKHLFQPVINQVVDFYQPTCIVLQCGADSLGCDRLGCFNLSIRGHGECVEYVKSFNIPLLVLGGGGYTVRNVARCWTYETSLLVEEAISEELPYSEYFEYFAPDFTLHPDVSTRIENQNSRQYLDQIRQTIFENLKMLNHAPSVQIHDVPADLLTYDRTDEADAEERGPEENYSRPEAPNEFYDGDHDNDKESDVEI
Sequence (Q9Y618 395-489 partner limits assumed): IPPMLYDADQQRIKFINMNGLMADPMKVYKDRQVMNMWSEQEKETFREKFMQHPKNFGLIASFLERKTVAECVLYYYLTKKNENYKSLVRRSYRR
Exercise: for every item that follows, state its recorded SI HDAC3/6.

Would you mind listing SI HDAC3/6 for each of the following compounds?
1. Nc1cccc(-c2cc(C(=O)NCCc3cc(C(=O)NO)no3)no2)c1
2. CC(C)(C)OC(=O)Nc1ccc(-c2csc(NC(=O)CCCc3cc(C(=O)NO)no3)n2)cc1
3. O=C(NO)c1cc(Cn2c3ccccc3c3ccccc32)on1
4. O=C(Nc1cccc(-c2cc(C(=O)NCCc3cc(C(=O)NO)no3)no2)c1)c1ccccc1
5. CCOC(=O)Nc1cccc(-c2csc(NC(=O)CCc3cc(C(=O)NO)no3)n2)c1
6. CC(C)(C)OC(=O)Nc1ccc(-c2cc(C(=O)NCc3ccc(C(=O)NO)cc3)no2)cc1
7. CCOC(=O)Nc1ccc(-c2csc(NC(=O)CCCc3cc(C(=O)NO)no3)n2)cc1
8. O=C(CCc1cc(C(=O)NO)no1)Nc1nc(-c2ccccc2)cs1

Solution:
1. 105
2. 11
3. 29
4. 1600
5. 32
6. 409
7. 7.2
8. 10

# map each compound to its SI HDAC3/6
1. CCOC(=O)Nc1ccc(-c2cc(C(=O)NCCc3cc(C(=O)NO)no3)no2)cc1
2. CC(C)(C)OC(=O)Nc1ccc(-c2cc(C(=O)NCCc3cc(C(=O)NO)no3)no2)cc1
3. O=C(CCCc1cc(C(=O)NO)no1)Nc1nc(-c2ccccc2)cs1
4. O=C(NO)c1ccc(CNC(=O)c2cc(-c3ccc(NC(=O)C4CCCCC4)cc3)on2)cc1
5. O=C(NO)c1ccc(CNC(=O)c2cc(-c3cccc(NC(=O)C4CCCCC4)c3)on2)cc1

Solution:
1: 51; 2: 3800; 3: 11; 4: 40; 5: 257

Okay, here is my list. What is SI HDAC3/6 for each of these?
1. O=C(NO)c1ccc(CNC(=O)c2cc(Cn3c4ccccc4c4ccccc43)on2)cc1
2. CC(C)(C)OC(=O)Nc1cccc(-c2cc(C(=O)NCc3ccc(C(=O)NO)cc3)no2)c1

Solution:
1: 798; 2: 1230

----------
biological target: HDAC10 (Homo sapiens); assay: HDAC10 isozyme inhibition; assay type: biochemical; conditions: read-out: HDAC Isoform, IC50, Class II, 10; singlet, 10-dose IC50 mode, 3-fold serial dilution starting at 30 μM; >50000 = no inhibition at 50 μM
Sequence (Q969S8 whole entry, canonical isoform): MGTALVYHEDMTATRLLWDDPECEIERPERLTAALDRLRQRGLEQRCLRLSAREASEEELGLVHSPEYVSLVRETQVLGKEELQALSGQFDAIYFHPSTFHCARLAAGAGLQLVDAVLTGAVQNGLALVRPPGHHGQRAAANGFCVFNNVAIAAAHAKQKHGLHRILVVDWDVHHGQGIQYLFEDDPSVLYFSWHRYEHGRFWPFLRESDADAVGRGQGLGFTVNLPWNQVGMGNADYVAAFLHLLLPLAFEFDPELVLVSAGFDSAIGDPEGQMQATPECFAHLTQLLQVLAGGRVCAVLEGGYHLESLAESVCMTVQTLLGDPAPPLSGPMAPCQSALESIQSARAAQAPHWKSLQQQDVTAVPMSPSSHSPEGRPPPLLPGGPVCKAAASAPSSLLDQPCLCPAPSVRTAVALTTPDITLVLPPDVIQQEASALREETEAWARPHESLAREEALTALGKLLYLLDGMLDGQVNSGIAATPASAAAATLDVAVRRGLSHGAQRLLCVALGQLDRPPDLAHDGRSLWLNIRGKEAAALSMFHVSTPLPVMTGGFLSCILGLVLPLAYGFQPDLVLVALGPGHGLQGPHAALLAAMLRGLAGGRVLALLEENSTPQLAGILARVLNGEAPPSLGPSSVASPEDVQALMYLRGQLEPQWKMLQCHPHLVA
Please provide measured pIC50 for the entries that follow.
One number for each entry, as −log10 of the molar value.

>>> datavalue("CC(C)(C)C(=O)Nc1cccc(-c2cc(C(=O)NCCc3cc(C(=O)NO)no3)no2)c1")
4.40

Problem: Which pIC50 value belongs to O=C(CCc1cc(C(=O)NO)no1)Nc1nc(-c2ccccc2)cs1 ?
Solution: 6.39

----------
biological target: UniProt:Q13547; experiment: HDAC1 isozyme inhibition; type: biochemical; settings: read-out: HDAC Isoform, IC50, Class I, 1; singlet, 10-dose IC50 mode, 3-fold serial dilution starting at 30 μM; >50000 = no inhibition at 50 μM
Sequence (Q13547 whole entry, canonical isoform): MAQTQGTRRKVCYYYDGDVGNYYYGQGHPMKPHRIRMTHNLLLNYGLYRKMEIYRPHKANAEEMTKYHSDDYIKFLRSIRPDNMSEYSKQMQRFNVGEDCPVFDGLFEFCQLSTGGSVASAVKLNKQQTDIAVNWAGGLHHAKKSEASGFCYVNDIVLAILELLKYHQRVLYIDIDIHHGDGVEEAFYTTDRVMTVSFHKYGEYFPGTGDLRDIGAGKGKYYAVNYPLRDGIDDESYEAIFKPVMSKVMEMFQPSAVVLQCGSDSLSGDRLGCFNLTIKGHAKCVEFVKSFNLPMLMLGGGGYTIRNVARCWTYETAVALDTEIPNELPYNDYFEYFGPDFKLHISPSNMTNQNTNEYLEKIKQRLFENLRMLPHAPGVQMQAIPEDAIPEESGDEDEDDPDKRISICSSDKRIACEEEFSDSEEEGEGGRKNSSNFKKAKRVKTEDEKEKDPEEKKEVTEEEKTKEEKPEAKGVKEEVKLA
measurementLabel: IC50

Examples with answers:
>>> datavalue("O=C(CCc1cc(C(=O)NO)no1)Nc1nc(-c2ccccc2)cs1")
"0.307 µM"
>>> datavalue("CC(C)(C)C(=O)Nc1cccc(-c2cc(C(=O)NCCc3cc(C(=O)NO)no3)no2)c1")
"> 50 µM"

Problem: Look up IC50 with UniProt:Q13547 for this molecule: CC(C)(C)OC(=O)Nc1cccc(-c2cc(C(=O)NCCc3cc(C(=O)NO)no3)no2)c1
Solution: > 50 µM
